Each recorded value in this set is attributed to PubChem BioAssay.

method-notes: JC-1 mitochondrial signal, unstimulated MM1S myeloma – cell-based, JC-1 fluorescence, 24 h, 100 nL compound, profiling panel (AID 1170); further: test concentration not given here
test-settings: MM1S mitochondrial potential, higher = more signal
endpoint-label: z-score

[[record]]
compound = "COc1ccc([Si](C)(C)[C@@H]2[C@@H](CC(=O)N(CCO)Cc3ccccc3)O[C@]3(C(=O)N(Cc4ccc(N5CCOC5=O)cc4)c4ccccc43)[C@H]2C)cc1"
data_value = -1.29

[[record]]
compound = "[N-]=[N+]=Nc1ccccc1[C@@H]1OC(c2ccc(OCCCO)cc2)=N[C@]1(CCS(=O)(=O)c1ccccc1)C(=O)NCc1ccccc1"
data_value = -0.856

[[record]]
compound = "COCCCNC(=O)[C@]1(Cc2ccccc2CN=[N+]=[N-])N=C(c2ccc(OCCCO)cc2)O[C@@H]1c1ccccc1CN=[N+]=[N-]"
data_value = -1.73

[[record]]
compound = "COc1ccc([Si](C)(C)[C@H]2[C@H](CC(=O)N3CCC[C@H]3CO)O[C@@]3(C(=O)N(Cc4ccc(N5C(=O)c6cccc7cccc5c67)cc4)c4ccccc43)[C@@H]2C)cc1"
data_value = 0.28

[[record]]
compound = "O=C1CSC(c2cccc([N+](=O)[O-])c2)N1c1ccccc1 (stereo not drawn)"
data_value = -0.779

[[record]]
compound = "O=c1c2ccc(Br)cc2nc(-c2ccccc2)n1Cc1cccc(O)c1"
data_value = -0.258

[[record]]
compound = "COc1ccc(CCNC(=O)[C@@H]2c3ccccc3C(=O)N(Cc3ccccc3C(F)(F)F)[C@H]2c2ccc(CO)cc2)cc1"
data_value = 0.00958

[[record]]
compound = "N#Cc1ccc(NN2C(C(O)c3ccco3)C=CC3C(=O)N(c4ccccc4)C(=O)C32)cc1 (stereo not drawn)"
data_value = 0.121

